- test-details: […] at 25 mg/kg, ip measured up to 6 hrs by LC-MS/MS analysis
- Assay type: ADME, organism-based
- assay-context: NSG, mouse, plasma
experimental-endpoint: concentration at 6 h (nM)

>>> endpoint_value("CCCCCCCCN(CCC(=O)Nc1ccccc1)CCC(=O)Nc1ccccc1")
480

----------
- test-details: Drug level in NSG mouse plasma xenografted with human HL60 cells at 25 mg/kg, ip administered 5 days a week followed by 2 days interval for 15 days measured 2 hrs post-last dose by LC-MS/MS analysis
- Assay type: ADME, organism-based
experimental-endpoint: concentration at 2 h (µM)

>>> endpoint_value("CCCCCCCCN(CCC(=O)Nc1ccccc1)CCC(=O)Nc1ccccc1")
0.736

----------
- target-desc: Albumin (Homo sapiens)
- Sequence (P02768 whole entry): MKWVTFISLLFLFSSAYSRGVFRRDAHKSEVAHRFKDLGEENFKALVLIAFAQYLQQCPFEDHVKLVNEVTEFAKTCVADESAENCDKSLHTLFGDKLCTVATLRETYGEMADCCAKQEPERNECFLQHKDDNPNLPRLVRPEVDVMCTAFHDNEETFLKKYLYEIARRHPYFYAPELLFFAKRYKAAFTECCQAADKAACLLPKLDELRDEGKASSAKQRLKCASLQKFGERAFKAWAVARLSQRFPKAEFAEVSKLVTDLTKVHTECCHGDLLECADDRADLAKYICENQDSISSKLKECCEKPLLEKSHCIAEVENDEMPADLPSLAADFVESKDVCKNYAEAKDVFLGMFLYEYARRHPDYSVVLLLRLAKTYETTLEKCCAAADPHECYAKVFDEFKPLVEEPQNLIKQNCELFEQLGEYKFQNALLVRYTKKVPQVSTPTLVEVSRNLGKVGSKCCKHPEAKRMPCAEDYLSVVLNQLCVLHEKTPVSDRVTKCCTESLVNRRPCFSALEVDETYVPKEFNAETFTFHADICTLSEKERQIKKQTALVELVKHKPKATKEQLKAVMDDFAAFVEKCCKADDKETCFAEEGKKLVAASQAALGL
- test-details: Binding affinity to human serum albumin
Kd: recorded values
experimental-endpoint: Kd

>>> endpoint_value("CCCCCCCCN(CCC(=O)Nc1ccccc1)CCC(=O)NC1CCCCC1")
"3 µM"
>>> endpoint_value("CCCCCCCCN(CCC(=O)Nc1ccccc1)CCC(=O)Nc1ccc(F)cc1")
"7.8 µM"
>>> endpoint_value("CCCCCCCCN(CCC(=O)Nc1ccccc1)CCC(=O)Nc1ccccc1")
"28 µM"

----------
- target-desc: Protein-S-isoprenylcysteine O-methyltransferase (Homo sapiens)
- test-details: Inhibition of recombinant human ICMT expressed in Sf9 insect cell membranes at 50 uM using biotin-farnesyl-L-cysteine as substrate preincubated for 15 mins followed by substrate addition and measured after 30 mins by scintillation counting analysis relative to control
experimental-endpoint: inhibition (%)

>>> endpoint_value("CCCCCCCCN(CCC(=O)Nc1ccccc1)CCS(=O)(=O)Nc1ccccc1")
22
>>> endpoint_value("CCOCCOCCN(CCC(=O)Nc1ccccc1)CCC(=O)Nc1ccccc1")
15
>>> endpoint_value("CCCCCCCCN(CCS(=O)(=O)Nc1ccccc1)CCS(=O)(=O)Nc1ccccc1")
34
>>> endpoint_value("CCCCCCCCN(CCC(=O)Nc1ccccc1)CCS(=O)(=O)N(C)c1ccccc1")
10
>>> endpoint_value("CCCCCCCCN(CCS(=O)(=O)N(C)c1ccccc1)CCS(=O)(=O)N(C)c1ccccc1")
12

----------
- target-desc: UniProt P02768
- test-details: Binding affinity to human serum albumin
- Assay type: ADME
- assay-context: human, human serum albumin; read-out: PB (converted)
experimental-endpoint: fraction unbound

>>> endpoint_value("CCCCCCCCN(CCC(=O)Nc1ccccc1)CCC(=O)Nc1ccccc1")
0.046
>>> endpoint_value("CCCCCCCCN(CCC(=O)Nc1ccccc1)CCC(=O)Nc1ccc(F)cc1")
0.013
>>> endpoint_value("CCCCCCCCN(CCC(=O)Nc1ccccc1)CCC(=O)NC1CCCCC1")
0.005

----------
- test-details: Drug level in NSG mouse plasma at 25 mg/kg, ip measured after 1 hr by LC-MS/MS analysis
- Assay type: ADME, organism-based
experimental-endpoint: concentration at 1 h (µM)

>>> endpoint_value("CCCCCCCCN(CCC(=O)Nc1ccccc1)CCC(=O)Nc1ccccc1")
1.7

Source of measurements: ChEMBL document CHEMBL4359814
